Reported IC50, Aurora A kinase (Homo sapiens).
Reported endpoint: IC50 (nM)

Take a look at these entries with their results.
>  <Compound>
NC(=O)/C(=C1\Nc2ccc(C(=O)NCCN3CCC(F)(F)CC3)cc2N1)c1nccc(C(F)(F)F)n1 [Compound 51A]

>  <IC50, nM>
7

$$$$
>  <Compound>
NC(=O)/C(=C1\Nc2ccc(N3CCC(N)C3)cc2S1)c1nccc(C(F)(F)F)n1 (stereo not shown) [Compound 123A]

>  <IC50, nM>
100

$$$$
>  <Compound>
CCN(CCO)C(=O)c1ccc2c(c1)S/C(=C(/C(N)=O)c1nccc(C(F)(F)F)n1)N2 [Compound 31A]

>  <IC50, nM>
4

$$$$
>  <Compound>
Cn1ccnc1-c1ccc2c(c1)S/C(=C(/C(N)=O)c1nccc(C(F)(F)F)n1)N2 [Compound 106A]

>  <IC50, nM>
3

$$$$
>  <Compound>
NCCNC(=O)c1ccc2c(c1)S/C(=C(/C(N)=O)c1nccc(C(F)(F)F)n1)N2 [Compound 63A]

>  <IC50, nM>
30

$$$$

(A) CN1CCCCC1C(=O)Nc1ccc2c(c1)N/C(=C(/C(N)=O)c1nccc(C(F)(F)F)n1)N2 (stereo not shown) [Compound 82A]
(B) NC(=O)C(=C1Nc2ccc([N+](=O)[O-])cc2S1)c1nccc(C(F)(F)F)n1 (single isomer, unassigned) [Compound 26A]
Ask | Smaller IC50 value? Options are A and B Respond with the label that goes with your answer.
Reply | A
(A: 8 nM, B: 200 nM)

====

- System: Aurora B kinase (Homo sapiens, UniProt Q96GD4)
- Sequence (Q96GD4 whole entry): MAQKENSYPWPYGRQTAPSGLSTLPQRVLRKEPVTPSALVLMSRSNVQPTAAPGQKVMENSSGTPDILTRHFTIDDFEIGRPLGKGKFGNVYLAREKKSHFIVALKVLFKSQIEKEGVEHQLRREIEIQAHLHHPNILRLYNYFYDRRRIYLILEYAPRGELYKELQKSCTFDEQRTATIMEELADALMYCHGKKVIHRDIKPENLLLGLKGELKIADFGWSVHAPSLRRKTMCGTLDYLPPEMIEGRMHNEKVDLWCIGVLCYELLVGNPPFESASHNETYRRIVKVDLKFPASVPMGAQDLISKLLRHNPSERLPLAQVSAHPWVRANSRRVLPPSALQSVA
Reported endpoint: IC50 (nM)

Worked examples follow.
>  <Compound>
NC(=O)/C(=C1\Nc2cc(OCCN3CCOCC3)ccc2S1)c1nccc(C(F)(F)F)n1 [Compound 112A]

>  <IC50 [nM]>
20

$$$$
>  <Compound>
NC(=O)/C(=C1\Nc2ccc(N3CCC(N4CCCCC4)CC3)cc2S1)c1nccc(C(F)(F)F)n1 [Compound 121A]

>  <IC50 [nM]>
8

$$$$

(A) NC(=O)/C(=C1\Nc2cc(NC(=O)Cn3ccnc3)ccc2S1)c1nccc(C(F)(F)F)n1 [Compound 88A]
(B) CN1CCN(CCCOc2ccc3c(c2)S/C(=C(/C(N)=O)c2nccc(C(F)(F)F)n2)N3)CC1 [Compound 115A]
Ask | Hey, between A and B which has a smaller measured IC50? Write down the label attached to your selection.
Reply | A

(I) NC(=O)/C(=C1\Nc2ccc(CCN3CCS(=O)(=O)CC3)cc2S1)c1nccc(C(F)(F)F)n1 [Compound 100A]
(II) CCN(C(=O)CN1CCCCC1)c1ccc2c(c1)N/C(=C(/C(N)=O)c1nccc(C(F)(F)F)n1)N2 [Compound 146A]
Ask | I'm curious, which of these has a smaller IC50 number: I or II ? Your choice should be expressed through its label.
Reply | II

====

Notes on pIC50 obtained with Aurora B kinase (Homo sapiens).
pIC50: −log10 of the molar value.
Reported endpoint: pIC50

>  <Molecule>
NC(=O)/C(=C1\Nc2ccc(I)cc2S1)c1nccc(C(F)(F)F)n1 [Compound 25A]

>  <pIC50>
7.00

$$$$

(I) NC(=O)/C(=C1\Nc2ccccc2S1)c1nccc(C(F)(F)F)n1
(II) COc1ccnc(/C(C(N)=O)=C2/Nc3ccccc3S2)n1 [Compound 16A]
Ask | Which of the two gives a bigger number for pIC50: I or II ? Which one? Tell me its label.
Reply | I

====

- Tested on: HCT116 (human colon carcinoma) cells
- Procedure summary: HCT116 cytotoxicity assay (CellTiter-Glo)
- Type: cell-based
- Run parameters: HCT-116, 72 h, cytotoxicity, three days culture, read-out: HCT116 IC50
Property: pIC50; scope: individual molecules
To interpret pIC50, take it as minus log10 of a concentration measured in moles per litre.

>  <Molecule>
NC(=O)/C(=C1\Nc2ccc(C(=O)NCCCn3ccnc3)cc2S1)c1nccc(C(F)(F)F)n1 [Compound 46A]

>  <Numeric result>
6.40

$$$$

Ask | Output measured pIC50 for this item: NC(=O)/C(=C1\Nc2ccc(C(=O)N3CC[C@@H](N)C3)cc2N1)c1nccc(C(F)(F)F)n1 [Compound 68A]
Reply | 7.00

Ask | Identify pIC50 associated with the molecule Cc1cc(C)nc(/C(C(N)=O)=C2/Nc3ccccc3S2)n1 [Compound 22A]
Reply | 5.00

Ask | Note down pIC50 recorded for NC(=O)C(=C1Nc2ccc(OCCn3ccnc3)cc2S1)c1nccc(C(F)(F)F)n1 (single isomer, unassigned) [Compound 117A]
Reply | 6.10

Ask | State its pIC50 for this molecule: NC(=O)/C(=C1\Nc2ccc(C(=O)NCCN3CCOCC3)cc2N1)c1nccc(C(F)(F)F)n1 [Compound 53A]
Reply | 6.52

Ask | Given CCN(C(=O)CN1CCCCC1)c1ccc2c(c1)N/C(=C(/C(N)=O)c1nccc(C(F)(F)F)n1)N2 [Compound 146A] , respond with its pIC50.
Reply | 6.40

Ask | Please give measured pIC50 of the following entry: NC(=O)/C(=C1\Nc2ccc(CN3CCNCC3)cc2S1)c1nccc(C(F)(F)F)n1 [Compound 94A]
Reply | 6.70

====

- Tested on: HCT116 (human colon carcinoma) cells
- Procedure summary: HCT116 cytotoxicity assay (CellTiter-Glo)
- Format: cell-based
- Run parameters: HCT-116, 72 h, cytotoxicity, three days culture, read-out: HCT116 IC50
Reported endpoint: IC50 (nM)
Give the value in nM but do not write nM after it.

Ask | Answer briefly: IC50 recorded on HCT116 (human colon carcinoma) cells for NC(=O)/C(=C1\Nc2ccc(Cn3ccnc3)cc2S1)c1nccc(C(F)(F)F)n1 [Compound 89A]
Reply | 500

Ask | Identify measured IC50 obtained with HCT116 (human colon carcinoma) cells for NC(=O)/C(=C1\Nc2ccccc2S1)c1nc(OCCN2CCOCC2)cc(C(F)(F)F)n1 [Compound 14A] .
Reply | 8000

Ask | Under HCT116 (human colon carcinoma) cells, report IC50 for Cc1cc(C(F)(F)F)nc(C(C(N)=O)=C2Nc3ccccc3N2)n1 [Compound 138A]
Reply | 1000

Ask | Fill: IC50 (HCT116 (human colon carcinoma) cells) for this compound NC(=O)/C(=C1\Nc2ccccc2S1)c1nccc(-c2ccccc2)n1 [Compound 20A]
Reply | 8000

====

pIC50: −log10 of the molar value.
Here we list compounds with their recorded pIC50 when tested on VEGFR2 kinase (Homo sapiens).
Sequence (P35968 20-1356): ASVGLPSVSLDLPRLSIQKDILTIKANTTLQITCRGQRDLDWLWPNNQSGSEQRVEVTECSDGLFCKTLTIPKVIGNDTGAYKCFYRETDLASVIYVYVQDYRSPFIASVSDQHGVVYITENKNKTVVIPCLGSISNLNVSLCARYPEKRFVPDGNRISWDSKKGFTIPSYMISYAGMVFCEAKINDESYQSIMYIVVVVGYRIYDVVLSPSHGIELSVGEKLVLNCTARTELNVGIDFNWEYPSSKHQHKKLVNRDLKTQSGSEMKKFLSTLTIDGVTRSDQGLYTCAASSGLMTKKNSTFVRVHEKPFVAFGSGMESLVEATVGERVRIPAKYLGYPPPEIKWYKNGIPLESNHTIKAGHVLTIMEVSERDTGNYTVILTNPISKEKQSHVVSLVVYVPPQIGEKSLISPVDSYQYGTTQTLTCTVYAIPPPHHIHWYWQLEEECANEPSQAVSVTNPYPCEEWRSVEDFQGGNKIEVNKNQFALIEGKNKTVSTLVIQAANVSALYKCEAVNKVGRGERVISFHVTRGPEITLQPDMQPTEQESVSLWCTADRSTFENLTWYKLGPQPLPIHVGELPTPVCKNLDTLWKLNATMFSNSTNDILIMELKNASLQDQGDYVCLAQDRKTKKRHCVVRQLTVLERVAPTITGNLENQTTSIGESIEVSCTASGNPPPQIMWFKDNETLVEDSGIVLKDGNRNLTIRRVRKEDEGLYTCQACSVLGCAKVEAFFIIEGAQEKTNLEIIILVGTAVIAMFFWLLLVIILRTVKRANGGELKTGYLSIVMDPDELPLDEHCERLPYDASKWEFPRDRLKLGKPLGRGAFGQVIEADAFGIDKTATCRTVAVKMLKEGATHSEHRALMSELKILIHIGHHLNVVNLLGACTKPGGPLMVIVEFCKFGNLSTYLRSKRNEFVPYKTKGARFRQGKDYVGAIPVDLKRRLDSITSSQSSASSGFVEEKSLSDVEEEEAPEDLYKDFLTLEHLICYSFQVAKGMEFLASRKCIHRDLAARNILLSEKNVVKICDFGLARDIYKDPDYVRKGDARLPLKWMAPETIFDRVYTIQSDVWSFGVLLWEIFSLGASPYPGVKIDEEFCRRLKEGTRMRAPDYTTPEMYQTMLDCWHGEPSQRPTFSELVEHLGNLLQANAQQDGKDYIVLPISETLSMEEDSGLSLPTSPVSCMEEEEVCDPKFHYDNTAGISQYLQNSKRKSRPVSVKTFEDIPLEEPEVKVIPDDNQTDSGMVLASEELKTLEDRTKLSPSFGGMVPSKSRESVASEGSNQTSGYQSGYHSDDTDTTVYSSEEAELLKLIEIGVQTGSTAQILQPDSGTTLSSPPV
Reported endpoint: pIC50

The cases that follow already have their pIC50 on record.
>  <Compound>
NC(=O)/C(=C1\Nc2ccc(N3CCC(N4CCCCC4)CC3)cc2S1)c1nccc(C(F)(F)F)n1 [Compound 121A]

>  <Numeric result>
7.70

$$$$
>  <Compound>
NC(=O)/C(=C1\Nc2ccccc2S1)c1nc(-c2cccnc2)cc(C(F)(F)F)n1 [Compound 10A]

>  <Numeric result>
7.40

$$$$
>  <Compound>
NC(=O)/C(=C1\Nc2ccc(C(=O)N3CCC(N)CC3)cc2N1)c1nccc(C(F)(F)F)n1 [Compound 66A]

>  <Numeric result>
8.70

$$$$
>  <Compound>
NC(=O)/C(=C1/Nc2cc(F)cc(F)c2N1)c1nccc(C(F)(F)F)n1 [Compound 36A]

>  <Numeric result>
6.70

$$$$

(P) CCN(CCO)C(=O)c1ccc2c(c1)S/C(=C(/C(N)=O)c1nccc(C(F)(F)F)n1)N2 [Compound 31A]
(Q) COc1ccnc(/C(C(N)=O)=C2/Nc3ccccc3S2)n1 [Compound 16A]
(R) NC(=O)/C(=C1\Nc2cc(NC(=O)Cn3ccnc3)ccc2S1)c1nccc(C(F)(F)F)n1 [Compound 88A]
(S) NC(=O)/C(=C1\Nc2ccc(CCc3cccnc3)cc2S1)c1nccc(C(F)(F)F)n1 [Compound 99A]
Ask | Kindly order the items shown according to pIC50, from the highest value down. Field: ranking. Enter the labels in the order requested.
Reply | P, R, S, Q
(P: 8.52, R: 7.70, S: 7.00, Q: 6.52)

====

- System: UniProtKB Q96GD4
pIC50: −log10 of the molar value.
Reported endpoint: pIC50

>  <Compound>
NC(=O)C(=C1Nc2cc(F)c(F)cc2N1)c1nccc(C(F)(F)F)n1 [Compound 38A]

>  <System>
UniProtKB Q96GD4

>  <pIC50>
8.00

$$$$
>  <Compound>
NC(=O)/C(=C1\Nc2ccc(NC(=O)C3(N)CC3)cc2N1)c1nccc(C(F)(F)F)n1 [Compound 34A]

>  <System>
UniProtKB Q96GD4

>  <pIC50>
8.22

$$$$
>  <Compound>
CN1CCCC[C@@H]1C(=O)Nc1ccc2c(c1)N/C(=C(/C(N)=O)c1nccc(C(F)(F)F)n1)N2 [Compound 143A]

>  <System>
UniProtKB Q96GD4

>  <pIC50>
8.22

$$$$

(I) CN1CCCC[C@H]1C(=O)Nc1ccc2c(c1)N/C(=C(/C(N)=O)c1nccc(C(F)(F)F)n1)N2 [Compound 142A]
(II) NC(=O)/C(=C1\Nc2ccc(C(=O)NC3CCNCC3)cc2N1)c1nccc(C(F)(F)F)n1 [Compound 70A]
(III) NC(=O)/C(=C1\Nc2ccc(C(=O)Nc3ccc(CN4CCOCC4)cc3)cc2N1)c1nccc(C(F)(F)F)n1 [Compound 72A]
Ask | Put these in order: smallest pIC50 first, largest last. Present the labels in the sequence the task asks for.
Reply | III, II, I
